This collection of values is drawn from ChEMBL document CHEMBL4052615.

# Measured on: UniProtKB P41594
# Sequence (P41594 21-1212 limits assumed): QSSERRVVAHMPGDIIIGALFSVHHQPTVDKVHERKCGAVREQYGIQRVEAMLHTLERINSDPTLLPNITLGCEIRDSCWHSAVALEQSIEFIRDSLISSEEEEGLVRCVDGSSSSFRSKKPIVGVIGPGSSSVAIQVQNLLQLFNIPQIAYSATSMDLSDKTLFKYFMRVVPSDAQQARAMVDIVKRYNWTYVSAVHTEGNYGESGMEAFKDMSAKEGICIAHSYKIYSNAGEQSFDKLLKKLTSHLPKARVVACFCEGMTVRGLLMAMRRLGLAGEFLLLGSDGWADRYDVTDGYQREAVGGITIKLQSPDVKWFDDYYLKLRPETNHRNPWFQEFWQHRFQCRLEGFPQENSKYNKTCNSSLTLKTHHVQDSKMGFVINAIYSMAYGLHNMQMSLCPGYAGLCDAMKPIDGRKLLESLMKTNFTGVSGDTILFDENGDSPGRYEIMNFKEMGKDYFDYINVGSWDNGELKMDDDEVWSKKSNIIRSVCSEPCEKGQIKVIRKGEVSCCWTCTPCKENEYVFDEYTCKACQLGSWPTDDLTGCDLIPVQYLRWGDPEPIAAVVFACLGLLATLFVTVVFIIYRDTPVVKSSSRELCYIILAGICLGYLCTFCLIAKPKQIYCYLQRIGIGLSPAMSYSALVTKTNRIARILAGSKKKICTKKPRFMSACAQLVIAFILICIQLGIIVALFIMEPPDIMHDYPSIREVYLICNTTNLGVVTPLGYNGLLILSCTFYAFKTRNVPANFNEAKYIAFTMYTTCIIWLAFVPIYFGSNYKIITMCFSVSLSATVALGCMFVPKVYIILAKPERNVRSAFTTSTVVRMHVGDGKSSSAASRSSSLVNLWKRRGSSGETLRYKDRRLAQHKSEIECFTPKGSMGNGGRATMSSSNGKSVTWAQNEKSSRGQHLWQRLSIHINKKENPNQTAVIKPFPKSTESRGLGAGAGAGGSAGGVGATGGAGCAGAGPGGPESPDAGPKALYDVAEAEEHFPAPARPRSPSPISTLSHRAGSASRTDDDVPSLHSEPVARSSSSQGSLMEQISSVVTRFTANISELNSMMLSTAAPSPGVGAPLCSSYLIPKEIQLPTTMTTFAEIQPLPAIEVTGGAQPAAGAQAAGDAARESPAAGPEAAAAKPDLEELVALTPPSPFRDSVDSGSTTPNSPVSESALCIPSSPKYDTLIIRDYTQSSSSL
# Protocol: Displacement of [3H]M-MPEP from mGluR5 (unknown origin) at 1 uM measured after 60 mins relative to control
The threshold is inclusive: inhibition of exactly 30% counts as YES; values below receive NO.

See these solved cases before continuing.
# Sample smiles, Measured on, Classification
rows = [
    ("O=S(=O)(c1ccc(F)cc1)c1cnc2ccc(Cl)cc2c1N1CCOCC1", "UniProtKB P41594", "NO"),
    ("COc1ccc(S(=O)(=O)c2cnc3ccc(F)cc3c2N2CCC(C)CC2)cc1", "UniProtKB P41594", "YES"),
    ("Cc1ccc(S(=O)(=O)c2cnc3ccc(Cl)cc3c2N2CCC(C)CC2)cc1F", "UniProtKB P41594", "YES"),
    ("Cc1ccc2ncc(S(=O)(=O)c3ccc(F)cc3)c(N3CCC(C)CC3)c2c1", "UniProtKB P41594", "YES"),
    ("Cc1ccc(S(=O)(=O)c2cnc3c(F)cccc3c2N2CCOCC2)cc1", "UniProtKB P41594", "NO"),
]

Hello, I need to know if Cc1cc(C)cc(S(=O)(=O)c2cnc3ccc(Cl)cc3c2N2CCOCC2)c1 has measured inhibition not below 30%. Thanks!
NO

Would you say COc1ccc2ncc(S(=O)(=O)c3cc(F)cc(F)c3)c(N3CCOCC3)c2c1 shows inhibition at minimum 30%?
NO

Could you tell me if the measured inhibition of COc1ccc2ncc(S(=O)(=O)c3ccccc3)c(N3CCOCC3)c2c1 reaches 30% or more?
YES

Entry CN1CCN(c2c(S(=O)(=O)c3ccccc3)cnc3ccccc23)CC1 : is its inhibition no less than 30%?
NO

Confirm if inhibition reported for the molecule Cc1ccc(S(=O)(=O)c2cnc3cc(Cl)ccc3c2N2CCOCC2)cc1F is 30% or above.
YES
